Assay: Stability in liver microsomes, monkey
Assay type: in vitro ADME
Conditions: monkey, liver microsomes; read-out: T1/2 in liver microsomes
Counter-ions that a name gives are not always drawn.
Recorded Endpoint: half-life (h)
Entry rule: numbers only, all in h.

Q. Complete the entry with half-life for CC1(C)Cc2cc(OC/C(=C/F)CN)ccc2C(=O)N1 [HC38-E, hydrochloride]
A. 20.8

----------
pIC50: −log10 of the molar value. Structures can show the parent of a compound that is named as a salt.
These records show pIC50 for DAO (Homo sapiens, UniProt P19801).

Compound | Readout Value
NC/C(=C/F)COc1ccc(C(=O)NCc2ccccn2)cc1 [TM112-Z, trifluoroacetate] | < 7.00
NC/C(=C\F)COc1ccc(C(=O)Nc2ccccc2)cc1 [TM1-E, trifluoroacetate] | < 7.00
NC/C(=C\F)COc1ccc(C(=O)NC2CCOCC2)cc1 [TM76-E, trifluoroacetate] | < 7.00
NC/C(=C/F)COc1ccc2c(c1)C(=O)CC2 [TM7-Z, trifluoroacetate] | < 7.00

Q. Complete the entry with pIC50 for NC/C(=C\F)COc1ccc2c(c1)C(=O)CC2 [TM7-E, trifluoroacetate]
A. < 6.00

----------
Molecular target: VAP-1 in abdominal fat of mice (Mus musculus)
Construct: abdominal fat was collected and homogenized; from tissue; host or cells: abdominal fat of BALBc mice (homogenate supernatant)
Sequence (O70423 whole entry): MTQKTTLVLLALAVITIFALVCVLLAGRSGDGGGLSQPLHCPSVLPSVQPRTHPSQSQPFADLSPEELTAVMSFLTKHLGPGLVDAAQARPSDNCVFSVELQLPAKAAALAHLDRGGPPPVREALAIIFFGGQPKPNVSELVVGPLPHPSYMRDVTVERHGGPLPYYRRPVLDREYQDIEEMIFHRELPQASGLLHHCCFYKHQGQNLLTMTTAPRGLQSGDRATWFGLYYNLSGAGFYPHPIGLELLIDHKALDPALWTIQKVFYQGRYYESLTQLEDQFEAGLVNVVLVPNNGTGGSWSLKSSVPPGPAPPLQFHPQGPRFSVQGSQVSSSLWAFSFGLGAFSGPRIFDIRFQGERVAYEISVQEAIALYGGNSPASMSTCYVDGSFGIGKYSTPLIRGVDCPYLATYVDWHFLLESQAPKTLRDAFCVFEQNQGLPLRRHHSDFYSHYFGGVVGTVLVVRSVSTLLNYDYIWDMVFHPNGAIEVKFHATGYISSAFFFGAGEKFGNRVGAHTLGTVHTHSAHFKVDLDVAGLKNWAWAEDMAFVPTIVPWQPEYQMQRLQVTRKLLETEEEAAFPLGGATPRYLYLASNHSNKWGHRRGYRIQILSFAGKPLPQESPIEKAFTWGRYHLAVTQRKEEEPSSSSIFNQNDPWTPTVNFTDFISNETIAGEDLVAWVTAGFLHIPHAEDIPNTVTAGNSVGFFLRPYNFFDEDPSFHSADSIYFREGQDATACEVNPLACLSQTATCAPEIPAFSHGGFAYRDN
Assay: Inhibition of the enzymatic activity of VAP-1 ex-vivo, abdominal fat after oral dosing
Assay type: in vivo, BALBc mice
Conditions: mouse; 0.5 mg/kg oral, abdominal fat collected after six hours; read-out: Inhibition rate (%) against the enzymatic activity of VAP-1 (ex-vivo)
Counter-ions that a name gives are not always drawn.
The label depends only on inhibition at 0.5 mg/kg: label 1 if it is at least 90%, label 0 if it is smaller.

Molecule | Class Assignment
NC/C(=C\F)COc1ccc(C(=O)Nc2ccccc2)cc1 [TM1-E, trifluoroacetate] | label 1
NC/C(=C/F)COc1ccc(C(=O)Nc2ccccc2)cc1 [TM1-Z, trifluoroacetate] | label 1
NC/C(=C/F)COc1ccc(-c2ncccn2)cc1 [TM39-Z, trifluoroacetate] | label 1
NC/C(=C\F)COc1ccc(-c2ncccn2)cc1 [TM39-E, trifluoroacetate] | label 1

Could you now look at the following molecule, please?
Q. Say whether NC/C(=C/F)COc1ccc2c(c1)CCNC2=O [TM26-Z, trifluoroacetate] shows inhibition at 0.5 mg/kg of 90% or more.
A. label 0

----------
Target: hERG (Homo sapiens, UniProt Q12809)
Construct: purchased ThermoFisher; host or cells: hERG cell membrane supplied with the kit
Sequence (Q12809 whole entry): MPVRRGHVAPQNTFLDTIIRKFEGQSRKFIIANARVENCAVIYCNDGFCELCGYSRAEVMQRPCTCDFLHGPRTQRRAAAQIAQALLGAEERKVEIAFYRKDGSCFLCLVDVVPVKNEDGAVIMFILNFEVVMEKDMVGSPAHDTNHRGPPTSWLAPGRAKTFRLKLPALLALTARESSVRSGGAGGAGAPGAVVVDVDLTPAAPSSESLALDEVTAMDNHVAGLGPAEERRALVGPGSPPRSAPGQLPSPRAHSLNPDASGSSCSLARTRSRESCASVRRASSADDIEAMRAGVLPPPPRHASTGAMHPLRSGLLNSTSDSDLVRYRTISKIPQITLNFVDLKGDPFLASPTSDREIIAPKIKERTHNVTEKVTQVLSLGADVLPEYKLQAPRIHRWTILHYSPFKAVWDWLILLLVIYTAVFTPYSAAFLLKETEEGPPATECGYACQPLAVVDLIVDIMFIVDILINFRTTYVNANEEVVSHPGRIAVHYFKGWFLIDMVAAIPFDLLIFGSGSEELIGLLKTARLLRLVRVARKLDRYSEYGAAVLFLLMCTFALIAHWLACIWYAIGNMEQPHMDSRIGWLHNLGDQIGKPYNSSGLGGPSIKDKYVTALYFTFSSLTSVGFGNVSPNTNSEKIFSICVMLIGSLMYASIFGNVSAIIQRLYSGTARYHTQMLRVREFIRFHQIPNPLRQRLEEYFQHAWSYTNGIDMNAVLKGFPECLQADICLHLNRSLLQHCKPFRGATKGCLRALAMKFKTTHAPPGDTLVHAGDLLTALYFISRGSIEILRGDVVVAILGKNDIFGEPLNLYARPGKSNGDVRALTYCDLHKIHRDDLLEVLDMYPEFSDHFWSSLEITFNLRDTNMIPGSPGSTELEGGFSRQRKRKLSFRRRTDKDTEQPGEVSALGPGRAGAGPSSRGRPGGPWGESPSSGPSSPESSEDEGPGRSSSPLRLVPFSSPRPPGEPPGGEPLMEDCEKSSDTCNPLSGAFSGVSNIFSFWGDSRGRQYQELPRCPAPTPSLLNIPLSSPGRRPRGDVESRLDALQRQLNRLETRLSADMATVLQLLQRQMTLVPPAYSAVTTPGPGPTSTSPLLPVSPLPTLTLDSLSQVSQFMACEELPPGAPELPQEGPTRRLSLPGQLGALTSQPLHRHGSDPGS
Assay: hERG fluorescence polarization inhibition experiment
Conditions: hERG cell membrane, 25° C. 2 hours, read-out: hERG (IC50 range, competitive binding vs tracer)
pIC50: −log10 of the molar value. Where a name gives a salt, the structure may show the parent alone.
Overview of recorded pIC50 for various compounds

Some solved cases for reference:
Compound | pIC50
Cc1csc(-c2ccc(OCC(=CF)CN)cc2)n1 | < 4.52
NC/C(=C\F)COc1ccc(C(=O)N[C@H]2CCCc3ccccc32)cc1 | < 5.00

Q. Complete the entry with pIC50 for NC/C(=C\F)COc1ccc(C(=O)Nc2ccccc2)cc1 [TM1-E, trifluoroacetate]
A. < 5.00

Q. Complete the entry with pIC50 for NCC(=CF)COc1ccc(C(=O)N2CCC(c3ccccc3)CC2)cc1 [TM44, trifluoroacetate]
A. < 5.00

Q. Complete the entry with pIC50 for NC/C(=C/F)COc1ccc(-c2nc3ccccc3[nH]2)cc1
A. < 5.00

Q. Complete the entry with pIC50 for CN(C)c1cccc(NC(=O)c2ccc(OCC(=CF)CN)cc2)c1 [TM62, trifluoroacetate]
A. < 4.52

Q. Complete the entry with pIC50 for NC/C(=C\F)COc1ccc2c(c1)C(=O)CC2 [TM7-E, trifluoroacetate]
A. < 5.00

Q. Complete the entry with pIC50 for NCC(=CF)COc1ccc(C(=O)N2CCc3ccccc3C2)cc1 [TM45, trifluoroacetate]
A. < 5.00

Q. Complete the entry with pIC50 for NCC(=CF)COc1ccc(C(=O)Nc2ccccc2)cc1 [TM1, trifluoroacetate]
A. < 5.00

Q. Complete the entry with pIC50 for NC/C(=C\F)COc1ccc(C(=O)N2CCc3ccccc3C2)cc1 [TM45-E, trifluoroacetate]
A. < 5.00

Q. Complete the entry with pIC50 for NCC(=CF)COc1ccc2c(c1)CCNC2=O.O=C(O)C(F)(F)F [TM26, trifluoroacetate]
A. < 4.52

Q. Complete the entry with pIC50 for NC/C(=C/F)COc1ccc2c(c1)CCNC2=O [TM26-Z, trifluoroacetate]
A. < 5.00

Q. Complete the entry with pIC50 for NCC(=CF)COc1ccc(-c2ncccn2)cc1 [TM39, trifluoroacetate]
A. < 4.52

Q. Complete the entry with pIC50 for NC/C(=C/F)COc1ccc(C(=O)N2CCc3ccccc3C2)cc1
A. < 5.00

Q. Complete the entry with pIC50 for NC/C(=C/F)COc1ccc(C(=O)N[C@H]2CCCc3ccccc32)cc1 [TM63-Z, trifluoroacetate]
A. < 5.00

Q. Complete the entry with pIC50 for NC/C(=C\F)COc1ccc2c(c1)CCNC2=O [TM26-E, trifluoroacetate]
A. < 5.00

Q. Complete the entry with pIC50 for NCC(=CF)COc1ccc(C(=O)Nc2ccc(F)cc2)cc1 [TM61, trifluoroacetate]
A. < 5.00

Q. Complete the entry with pIC50 for NCC(=CF)COc1ccc(-c2nc3ccccc3[nH]2)cc1.O=C(O)C(F)(F)F [TM42, trifluoroacetate]
A. < 5.00

Q. Complete the entry with pIC50 for NC/C(=C/F)COc1ccc(C(=O)Nc2ccccc2)cc1 [TM1-Z, trifluoroacetate]
A. < 5.00

Q. Complete the entry with pIC50 for NC/C(=C\F)COc1ccc(C(=O)NC2CCOCC2)cc1 [TM76-E, trifluoroacetate]
A. < 5.00

Q. Complete the entry with pIC50 for NC/C(=C\F)COc1ccc2c(c1)CN(Cc1ccc(Cl)cc1)C2=O
A. < 5.00

----------
Test: Rat PK experiment
Type: in vivo, Male rats
Details: male; rat blood plasma, po 3 mg/kg
Counter-ions that a name gives are not always drawn.
Recorded Endpoint: AUC(0-inf) (ng·h/mL)
Entry rule: numbers only, all in ng·h/mL.

Q. Complete the entry with AUC(0-inf) for CC1(C)Cc2cc(OC/C(=C/F)CN)ccc2C(=O)N1 [HC38-E, hydrochloride]
A. 1040

----------
Experiment: Stability in liver microsomes, dog
Type: in vitro ADME
Conditions: dog, liver microsomes; read-out: T1/2 in liver microsomes
Where a name gives a salt, the structure may show the parent alone.
Recorded Endpoint: half-life (h)
Entry rule: numbers only, all in h.

Q. Complete the entry with half-life for CC1(C)Cc2cc(OC/C(=C/F)CN)ccc2C(=O)N1 [HC38-E, hydrochloride]
A. 118

----------
Structures can show the parent of a compound that is named as a salt.
These records show IC50 for UniProt P21397.
Sequence (P21397 whole entry): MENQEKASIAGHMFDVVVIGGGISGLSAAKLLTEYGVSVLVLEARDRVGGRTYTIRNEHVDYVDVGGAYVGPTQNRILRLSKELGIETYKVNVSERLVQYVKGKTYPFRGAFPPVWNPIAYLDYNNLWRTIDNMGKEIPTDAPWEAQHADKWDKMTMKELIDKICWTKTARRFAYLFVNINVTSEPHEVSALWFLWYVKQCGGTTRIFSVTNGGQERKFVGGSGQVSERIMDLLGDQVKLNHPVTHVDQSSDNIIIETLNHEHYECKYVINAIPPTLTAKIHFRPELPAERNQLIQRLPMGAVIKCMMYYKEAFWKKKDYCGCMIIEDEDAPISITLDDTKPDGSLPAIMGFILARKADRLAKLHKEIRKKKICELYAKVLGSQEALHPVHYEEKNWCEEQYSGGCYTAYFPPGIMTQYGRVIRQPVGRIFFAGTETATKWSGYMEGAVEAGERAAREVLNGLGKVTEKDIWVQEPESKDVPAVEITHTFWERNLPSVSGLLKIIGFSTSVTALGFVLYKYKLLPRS

Some solved cases for reference:
Compound | IC50
NC/C(=C\F)COc1ccc(-c2ncccn2)cc1 [TM39-E, trifluoroacetate] | > 10 µM
NC/C(=C/F)COc1ccc(C(=O)NCc2ccccn2)cc1 [TM112-Z, trifluoroacetate] | > 100 µM
NC/C(=C\F)COc1ccc2c(c1)C(=O)CC2 [TM7-E, trifluoroacetate] | > 100 µM
NC/C(=C\F)COc1ccc(C(=O)NC2CCOCC2)cc1 [TM76-E, trifluoroacetate] | > 100 µM
NC/C(=C/F)COc1ccc2c(c1)CNC2=O [TM77-Z, trifluoroacetate] | > 100 µM
NC/C(=C/F)COc1ccc(C(=O)Nc2ccc3c(c2)OCCO3)cc1 [TM114-Z] | > 10 µM

Q. # return IC50 of NC/C(=C/F)COc1ccc(C(=O)NC2CCOCC2)cc1 [TM76-Z, trifluoroacetate] (system: UniProt P21397)
A. > 100 µM

Q. # return IC50 of NC/C(=C\F)COc1ccc(C(=O)Nc2ccc3c(c2)OCCO3)cc1 [TM114-E] (system: UniProt P21397)
A. > 10 µM

Q. # return IC50 of NC/C(=C/F)COc1ccc2c(c1)CCNC2=O [TM26-Z, trifluoroacetate] (system: UniProt P21397)
A. > 100 µM

Q. # return IC50 of NC/C(=C\F)COc1ccc(C(=O)NCc2ccccn2)cc1 [TM112-E, trifluoroacetate] (system: UniProt P21397)
A. > 100 µM

----------
Molecular target: VAP-1 (Homo sapiens)
Sequence (Q16853 1-763): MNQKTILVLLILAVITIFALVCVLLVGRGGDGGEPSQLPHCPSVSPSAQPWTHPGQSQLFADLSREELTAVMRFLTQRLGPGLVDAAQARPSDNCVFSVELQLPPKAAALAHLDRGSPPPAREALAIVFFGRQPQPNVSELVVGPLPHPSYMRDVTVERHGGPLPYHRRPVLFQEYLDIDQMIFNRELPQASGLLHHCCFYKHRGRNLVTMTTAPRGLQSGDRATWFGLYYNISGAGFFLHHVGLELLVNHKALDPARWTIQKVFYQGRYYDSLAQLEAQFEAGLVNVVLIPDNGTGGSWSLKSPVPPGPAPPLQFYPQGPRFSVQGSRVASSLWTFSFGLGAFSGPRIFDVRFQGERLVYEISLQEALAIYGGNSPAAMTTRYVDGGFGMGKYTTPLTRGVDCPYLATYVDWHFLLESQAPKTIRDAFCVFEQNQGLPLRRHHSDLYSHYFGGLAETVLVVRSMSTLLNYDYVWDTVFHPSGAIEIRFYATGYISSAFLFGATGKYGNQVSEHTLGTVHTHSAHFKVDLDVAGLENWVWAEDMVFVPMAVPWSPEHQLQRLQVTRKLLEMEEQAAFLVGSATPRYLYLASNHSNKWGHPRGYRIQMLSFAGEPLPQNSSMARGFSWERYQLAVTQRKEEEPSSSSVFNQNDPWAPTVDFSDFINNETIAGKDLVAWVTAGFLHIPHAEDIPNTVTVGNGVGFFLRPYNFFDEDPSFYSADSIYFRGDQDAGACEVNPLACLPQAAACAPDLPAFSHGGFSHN
Structures can show the parent of a compound that is named as a salt.
Recorded Endpoint: IC50 (nM)
Entry rule: numbers only, all in nM.

Some solved cases for reference:
Compound | Recorded Endpoint | Readout Value
NC/C(=C\F)COc1ccc(C(=O)NC2CCOCC2)cc1 [TM76-E, trifluoroacetate] | IC50 | 4.3
NCC(=CF)COc1ccc(C(=O)N2CCc3ccccc3C2)cc1F [TM72] | IC50 | 3.4
CN(C)c1cccc(NC(=O)c2ccc(OCC(=CF)CN)cc2)c1 [TM62, trifluoroacetate] | IC50 | 1.8

Q. # return IC50 of NC/C(=C\F)COc1ccc(C(=O)NCc2ccccn2)cc1 [TM112-E, trifluoroacetate] (system: VAP-1 (Homo sapiens))
A. 3.2

Q. # return IC50 of NCC(=CF)COc1ccc(C(=O)Nc2cccc3ccccc23)cc1 [TM8, trifluoroacetate] (system: VAP-1 (Homo sapiens))
A. 2.2

Q. # return IC50 of NCC(=CF)COc1ccc2c(c1)CCNC2=O.O=C(O)C(F)(F)F [TM26, trifluoroacetate] (system: VAP-1 (Homo sapiens))
A. 5.8

Q. # return IC50 of NC/C(=C/F)COc1ccc(-c2nc3ccc(Cl)cc3s2)cc1 [TM41-Z, trifluoroacetate] (system: VAP-1 (Homo sapiens))
A. 3.5

Q. # return IC50 of NC/C(=C\F)COc1ccc(C(=O)N[C@H]2CCCc3ccccc32)cc1 [TM63-E] (system: VAP-1 (Homo sapiens))
A. 5.7

Q. # return IC50 of NC/C(=C/F)COc1ccc(C(=O)N2CCC(c3ccccc3)CC2)cc1 [TM44-Z, trifluoroacetate] (system: VAP-1 (Homo sapiens))
A. 9.7

Q. # return IC50 of NC/C(=C/F)COc1ccc2c(c1)CCNC2=O [TM26-Z, trifluoroacetate] (system: VAP-1 (Homo sapiens))
A. 3.7

Q. # return IC50 of NCC(=CF)COc1ccc(-c2nc3ccccc3[nH]2)cc1.O=C(O)C(F)(F)F [TM42, trifluoroacetate] (system: VAP-1 (Homo sapiens))
A. 1.6

Q. # return IC50 of NC/C(=C\F)COc1ccc(-c2nc3ccc(Cl)cc3s2)cc1 [TM41-E, trifluoroacetate] (system: VAP-1 (Homo sapiens))
A. 3.1
